molecular target: human CLDN18.2 (human); test: cell-based or functional assay
Listing of entries alongside the reported ADCC Maximum killing (%), PBMC effector cells, NIH-3T3-CLDN18.2 target cells.

# annotated cases, reported ADCC Maximum killing (%), PBMC effector cells, NIH-3T3-CLDN18.2 target cells shown
[[record]]
binder = "humanized antibody hz28G3-1.1 (antibody, human IgG1, kappa, V domains shown) VH: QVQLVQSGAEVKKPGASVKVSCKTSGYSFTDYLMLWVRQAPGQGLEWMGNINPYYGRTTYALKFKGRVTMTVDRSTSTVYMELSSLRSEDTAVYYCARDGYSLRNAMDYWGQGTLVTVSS VL: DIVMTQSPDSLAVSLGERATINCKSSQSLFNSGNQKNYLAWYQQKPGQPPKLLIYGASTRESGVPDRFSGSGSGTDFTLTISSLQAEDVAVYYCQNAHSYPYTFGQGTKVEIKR"
result = "28.1%"

[[record]]
binder = "chimeric antibody xi28G3 (antibody, human IgG1, kappa, V domains shown, Mouse variable regions on human IgG1/kappa; defucosylated, expressed in FUT8-knockout CHO-S cells; also called chimeric 28G3) VH: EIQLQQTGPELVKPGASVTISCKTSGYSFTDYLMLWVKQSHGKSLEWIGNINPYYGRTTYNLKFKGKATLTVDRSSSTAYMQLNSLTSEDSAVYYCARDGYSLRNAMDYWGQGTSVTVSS VL: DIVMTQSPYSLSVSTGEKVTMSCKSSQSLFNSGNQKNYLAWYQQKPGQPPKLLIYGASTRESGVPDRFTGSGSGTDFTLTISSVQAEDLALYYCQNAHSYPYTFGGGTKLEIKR"
result = "47%"

[[record]]
binder = "humanized antibody hz28G3-1.3 (antibody, human IgG1, kappa, V domains shown) VH: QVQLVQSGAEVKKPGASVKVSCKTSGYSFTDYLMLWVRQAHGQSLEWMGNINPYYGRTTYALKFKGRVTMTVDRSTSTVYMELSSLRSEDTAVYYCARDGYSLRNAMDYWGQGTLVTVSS VL: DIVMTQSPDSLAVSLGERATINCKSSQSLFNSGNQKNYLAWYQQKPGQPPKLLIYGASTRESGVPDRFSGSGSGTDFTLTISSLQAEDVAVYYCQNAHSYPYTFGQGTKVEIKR"
result = "44.3%"

[[record]]
binder = "humanized antibody hz40F6-1.4 (antibody, human IgG1, kappa, V domains shown) VH: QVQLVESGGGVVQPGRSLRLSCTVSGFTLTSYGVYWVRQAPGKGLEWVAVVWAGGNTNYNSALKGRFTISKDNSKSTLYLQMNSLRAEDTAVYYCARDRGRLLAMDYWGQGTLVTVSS VL: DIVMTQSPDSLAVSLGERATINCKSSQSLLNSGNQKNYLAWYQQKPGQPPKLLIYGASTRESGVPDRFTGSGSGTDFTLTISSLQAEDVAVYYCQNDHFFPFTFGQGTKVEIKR"
result = "24.6%"


Now, please, on to the next binder.
Need ADCC Maximum killing (%), PBMC effector cells, NIH-3T3-CLDN18.2 target cells, item 15F9 (antibody, human IgG1, kappa, V domains shown) VH: QVQLVQSGSELKKPGASVKVSCKASGYTFTNYGINWVRQAPGQGLEWMGWINPNTGETTYAEEFKGRFVFSLDTSVSTAYLQISSLKAEDTAVYFCARLYYGNRFDSWGQGTLVTVSS VL: DIVMTQSPDSLAVSLGERATINCKSSQSLLNSGNQRNYLTWYQQKPGQPPKLLIYWASTRESGVPDRFSGSGSGTDFTLTISSLQAEDVAVYYCQNAYYYPLTFGGGTKVEIKR
22.6%

Value source: patent US20240409629A1
